Target: hCB1 (Homo sapiens, UniProt P21554)
Sequence (P21554 whole entry): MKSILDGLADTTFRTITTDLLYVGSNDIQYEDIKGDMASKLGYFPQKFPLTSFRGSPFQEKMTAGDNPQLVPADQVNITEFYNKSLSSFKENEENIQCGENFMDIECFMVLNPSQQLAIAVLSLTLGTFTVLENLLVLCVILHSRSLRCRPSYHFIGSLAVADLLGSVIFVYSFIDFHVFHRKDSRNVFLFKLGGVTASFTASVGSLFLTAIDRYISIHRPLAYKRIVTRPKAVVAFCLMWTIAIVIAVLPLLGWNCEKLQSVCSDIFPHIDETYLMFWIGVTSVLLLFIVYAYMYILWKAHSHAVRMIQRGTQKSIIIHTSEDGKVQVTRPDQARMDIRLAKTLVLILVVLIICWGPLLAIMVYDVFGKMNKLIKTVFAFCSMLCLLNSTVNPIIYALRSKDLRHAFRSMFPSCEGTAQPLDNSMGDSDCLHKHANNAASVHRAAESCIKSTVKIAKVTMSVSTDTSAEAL
Assay: bioSensAll ebBRET signaling profiling, hCB1
Assay type: cell-based
Set-up: host or cells: HEK293SL cells, transient PEI transfection
Conditions: Log [Compound] (M) -5.47381; single replicate values, FigS6a
Give Condition met when the value for Gi1 hCB1 is at least 8. Give Condition not met when it is less.

See these solved cases before continuing.
Is Gi1 hCB1 at least 8? Consider Cc1cc(C(=O)N2CC3(CCC3)[C@H]2[C@@H]2CCCO2)nn1-c1cccc(C(F)(F)F)c1 [‘5490]
Condition met

Dear colleague, could you confirm whether COc1cccc(C(NC(=O)c2cc(C)n(-c3cccc(C(F)(F)F)c3)n2)c2ccco2)c1 (centres unmarked) [‘1087] has Gi1 hCB1 at or above 8?
Condition not met

Threshold query (Gi1 hCB1 >= 8) on Cc1cc(C(=O)N2CC3(CCC3)[C@@H]2[C@@H]2CCCO2)nn1-c1cccc(C(F)(F)F)c1 [‘3386]
Condition not met

With those in mind, consider the next molecule.
Please tell me: is the molecule Cc1nc(CC2CC2)oc1-c1nc(Cc2cc3c(cc2Br)OCO3)no1 [‘7019] at or over 8 in terms of Gi1 hCB1?
Condition not met

###

Target: hCB1 (Homo sapiens)
Experiment: bioSensAll ebBRET signaling profiling, hCB1
Assay type: cell-based
Design: host or cells: HEK293SL cells, transient PEI transfection
Conditions: Gi1 biosensor; Log [Compound] (M) -12.8861
Decide by Gi1 hCB1 response: equal to or exceeding -2 means Satisfied, less means Not satisfied.

Would you say Cc1cc(C(=O)N2CC3(CCC3)[C@H]2[C@H]2CCCO2)nn1-c1cccc(C(F)(F)F)c1 shows Gi1 hCB1 response at minimum -2?
Satisfied

State whether the measured Gi1 hCB1 response reaches -2, counting equality as reaching it, for Cc1cc(C(=O)N2CC3(CCC3)[C@@H]2[C@H]2CCCO2)nn1-c1cccc(C(F)(F)F)c1 (single isomer, unassigned)
Not satisfied

Textbook exercise: given the entry Cc1cc(C(=O)NC(c2ccco2)c2ccco2)nn1-c1cccc(C(F)(F)F)c1 , state whether its Gi1 hCB1 response is greater than or equal to -2.
Not satisfied

Kindly determine if Gi1 hCB1 response recorded for Cc1cc(C(=O)N2CC3(CCC3)[C@@H]2[C@@H]2CCCO2)nn1-c1cccc(C(F)(F)F)c1 is above or exactly -2.
Satisfied

Is reported Gi1 hCB1 response greater than or equal to -2 here: Cc1cc(C(=O)N2CC3(CCC3)[C@H]2[C@@H]2CCCO2)nn1-c1cccc(C(F)(F)F)c1
Not satisfied

Item COC(=O)C(NC(=O)c1cc(C)n(-c2cccc(C(F)(F)F)c2)n1)c1cccs1 (stereo not shown) with Gi1 hCB1 response of -2 or above?
Not satisfied

Entry COC(=O)[C@@H]1[C@@H]2CC[C@@H]2CN1C(=O)c1cc(C)n(-c2cccc(C(F)(F)F)c2)n1 : is its Gi1 hCB1 response no less than -2?
Satisfied

Check this compound for Gi1 hCB1 response at or above -2: COC(=O)[C@@H]1[C@@H]2CCC[C@@H]2CN1C(=O)c1cc(C)n(-c2cccc(C(F)(F)F)c2)n1
Not satisfied

# check: Gi1 hCB1 response of COC(=O)[C@@H]1[C@@H]2CCC[C@@H]2CN1C(=O)c1cc(C)n(-c2cccc(Cl)c2)n1 (racemic) is greater than or equal to -2
Satisfied

Record Cc1cc(C(=O)N(C)C(c2ccco2)c2ccco2)nn1-c1cccc(C(F)(F)F)c1 ; criterion: Gi1 hCB1 response no lower than -2. Met?
Satisfied

Reported Gi1 hCB1 response at or above -2? COc1cccc(C(NC(=O)c2cc(C)n(-c3cccc(C(F)(F)F)c3)n2)c2ccco2)c1 (stereo not shown)
Not satisfied

I'd appreciate it if you could say whether CC(=O)C(c1cccs1)N(C)C(=O)c1cc(C)n(-c2cccc(C(F)(F)F)c2)n1 (stereo not shown) has Gi1 hCB1 response at least equal to -2.
Not satisfied

hey, is Gi1 hCB1 response for this one >= -2? Cc1cc(C(=O)N(C)C(c2ccccc2)c2ccco2)nn1-c1cccc(C(F)(F)F)c1 (stereo not shown)
Satisfied

Is the recorded value of Gi1 hCB1 response equal to or greater than -2 for this compound? COC(=O)C(NC(=O)c1cc(C)n(-c2cccc(F)c2)n1)c1cccs1 (stereo not shown)
Not satisfied

Hi team, for Cc1cc(C(=O)NC(c2ccccc2)c2ccco2)nn1-c1cccc(C#N)c1 (stereo not shown) , is the recorded Gi1 hCB1 response at or above -2?
Not satisfied

Could you please find out whether COC(=O)[C@](C)(NC(=O)c1cc(C)n(-c2cccc(C(F)(F)F)c2)n1)c1cccs1 has Gi1 hCB1 response that meets -2 or exceeds it?
Satisfied

###

Biological target: hCB1 (Homo sapiens)
Assay: bioSensAll ebBRET signaling profiling, hCB1
Format: cell-based
Design: host or cells: HEK293SL cells, transient PEI transfection
Settings: Log [Compound] (M) -10.0969; single replicate values, FigS6a
Entries and their GoB hCB1
Give your answer as a number; write no unit.

Give the reported GoB hCB1 for this molecule. Cn1nc(-c2nnc(C(C)(C)Oc3ccc(C(F)(F)F)cc3)o2)c2ccccc2c1=O
-5.371

Quickly give me recorded GoB hCB1 for Cc1c(C(=O)OCC2CSc3ccccc3O2)cnn1Cc1ccccc1 (stereo not shown)
-5.128

Tell me GoB hCB1 reported for COC(=O)C(NC(=O)c1cc(C)n(-c2cccc(C(F)(F)F)c2)n1)c1cccs1 (stereo not shown)
-0.1723

Quickly give me recorded GoB hCB1 for Cc1cc(C(=O)N2CC3(CCC3)[C@H]2[C@@H]2CCCO2)nn1-c1cccc(C(F)(F)F)c1
2.4173

Next:
Retrieve GoB hCB1 measured for CC(=O)C(c1cccs1)N(C)C(=O)c1cc(C)n(-c2cccc(C(F)(F)F)c2)n1 (stereo not shown) and print it.
-3.463

Fill in reported GoB hCB1 for this entry: Cc1cc(C(=O)NC(c2ccccc2)c2ccco2)nn1-c1cccc(C#N)c1 (stereo not shown)
-5.531

###

Entries and their measured Gi1 hCB1 follow.
Biological target: hCB1 (Homo sapiens, UniProt P21554)
Test: bioSensAll ebBRET signaling profiling, hCB1
Format: cell-based
Design: host or cells: HEK293SL cells, transient PEI transfection
Details: Log [Compound] (M) -11.4949; single replicate values, FigS6a
Reply: number alone, nothing else.

Use these answered entries as a reference point.
Assign Gi1 hCB1 to the following record: Cc1cc(C(=O)N2CC3(CCC3)[C@H]2[C@@H]2CCCO2)nn1-c1cccc(C(F)(F)F)c1
3.327

For Cc1cc(C(=O)N2CC3(CCC3)[C@@H]2[C@@H]2CCCO2)nn1-c1cccc(C(F)(F)F)c1 , write its Gi1 hCB1.
1.029

Give the value of Gi1 hCB1 reported for the following: Cn1nc(-c2nnc(C(C)(C)Oc3ccc(C(F)(F)F)cc3)o2)c2ccccc2c1=O
-5.698

Give the reported value of Gi1 hCB1 for this record: Cc1nc(CC2CC2)oc1-c1nc(Cc2cc3c(cc2Br)OCO3)no1
-0.7251

Switching to the query record.
Tell me its Gi1 hCB1 given Cc1cc(C(=O)NC(c2ccccc2)c2ccco2)nn1-c1cccc(C(F)(F)F)c1 (centres unmarked) as the entry.
1.523

###

Biological target: hCB1 (Homo sapiens)
Experiment: bioSensAll ebBRET signaling profiling, hCB1
Assay type: cell-based
Parameters: host or cells: HEK293SL cells, transient PEI transfection
Settings: Log [Compound] (M) -8.68787; single replicate values, FigS6a
Parameter Measured: GoB hCB1
I'd appreciate a reply containing only the number, no unit.

Entry COC(=O)[C@@H]1[C@@H]2CCC[C@@H]2CN1C(=O)c1cc(C)n(-c2cccc(Cl)c2)n1 (racemic) needs its GoB hCB1 filled in; supply it.
-4.812

Report GoB hCB1, nothing else, for this molecule: COC(=O)[C@@H]1[C@@H]2CC[C@@H]2CN1C(=O)c1cc(C)n(-c2cccc(C(F)(F)F)c2)n1
-5.28

Find the measured GoB hCB1 of CC(=O)C(c1cccs1)N(C)C(=O)c1cc(C)n(-c2cccc(C(F)(F)F)c2)n1 (centres unmarked) and report it.
-3.931

Provide measured GoB hCB1 value, entry: Cn1nc(-c2nnc(C(C)(C)Oc3ccc(Cl)cc3)o2)c2ccccc2c1=O
-5.892

Identify the reported GoB hCB1 for the following entry. COC(=O)C(NC(=O)c1cc(C)n(-c2cccc(F)c2)n1)c1cccs1 (centres unmarked)
-2.33

###

Biological target: UniProtKB P21554
Experiment: bioSensAll ebBRET signaling profiling, hCB1
Format: cell-based
Design: host or cells: HEK293SL cells, transient PEI transfection
Details: Log [Compound] (M) -8.22186; single replicate values, FigS6a
GoB hCB1 values, listed per item
Give the figure only, with no unit attached.

Consider the following illustrative entries.
Name the recorded GoB hCB1 of the compound listed here: Cn1nc(-c2nnc(C(C)(C)Oc3ccc(Cl)cc3)o2)c2ccccc2c1=O
-4.433

Respond only with GoB hCB1 recorded for Cc1nn(Cc2ccc(Cl)cc2)c(C)c1C(=O)OCC1CSc2ccccc2O1 (stereo not drawn)
0.4626

Return GoB hCB1 for the following compound: Cc1cc(C(=O)NC(c2ccco2)c2ccco2)nn1-c1cccc(C(F)(F)F)c1
13.6209

Report GoB hCB1, nothing else, for this compound: COC(=O)[C@@H]1[C@@H]2CC[C@@H]2CN1C(=O)c1cc(C)n(-c2cccc(C(F)(F)F)c2)n1
-3.751

Determine its reported GoB hCB1: Cc1cc(C(=O)NC(c2ccccc2)c2ccco2)nn1-c1cccc(C#N)c1 (stereo not drawn)
-4.416

Quickly give me recorded GoB hCB1 for COC(=O)[C@@H]1[C@@H]2CCC[C@@H]2CN1C(=O)c1cc(C)n(-c2cccc(C(F)(F)F)c2)n1
0.7628

Next:
Using known records, supply GoB hCB1 for Cc1cc(C(=O)N2CC3(CCC3)[C@@H]2[C@H]2CCCO2)nn1-c1cccc(C(F)(F)F)c1 (single isomer, unassigned)
-0.8557

Could you please provide reported GoB hCB1 for Cc1cc(C(=O)NC(c2ccccc2)c2ccco2)nn1-c1cccc(C(F)(F)F)c1 (stereo not drawn) ? Thanks!
1.626

Name the recorded GoB hCB1 of the compound listed here: Cc1cc(C(=O)N2CC3(CCC3)[C@@H]2[C@@H]2CCCO2)nn1-c1cccc(C(F)(F)F)c1
-4.075

Dear colleague, please send me the reported GoB hCB1 for COc1cccc(C(NC(=O)c2cc(C)n(-c3cccc(C(F)(F)F)c3)n2)c2ccco2)c1 (stereo not drawn) when you can.
-2.043

// fetch GoB hCB1 given entry Cc1nc(CC2CC2)oc1-c1nc(Cc2cc3c(cc2Br)OCO3)no1
-2.3673

Answer with reported GoB hCB1 of Cc1c(C(=O)OCC2CSc3ccccc3O2)cnn1Cc1ccccc1 (stereo not drawn)
-0.09294

Answer with the recorded GoB hCB1 of Brc1cc2c(cc1Cc1noc(-c3cnn(CC4CC4)c3)n1)OCO2 only.
-9.781

Annotate the compound COC(=O)C(NC(=O)c1cc(C)n(-c2cccc(C(F)(F)F)c2)n1)c1cccs1 (stereo not drawn) with its measured GoB hCB1.
16.822

Origin of the recorded values: paper PMC11882969
